- Test system: short-term antigen-specific T cell lines generated from PBMCs
- Protocol notes: Interferon-γ ELISpot assay on short-term T cell lines
- Assay type: cell-based, human
- Parameters: key: +: ELISPOT: Immungenicity of the peptide shown by IFN-gamma ELISPOT analysis; * Highlights data from published resources; +*: * Highlights data from published resources
- Condition set: HLA restriction B15
Value type: ELISpot

88 (GQAEPDRAHY; Human papillomavirus 16) [compound 88] ... +
9 (SEYRHYCYSLY; Human papillomavirus 16) [compound 9] ... 1
126 (KISEYRHY; Human papillomavirus 16) [compound 126] ... +
95 (YRHYCYSVY; Human papillomavirus 16) [compound 95] ... +
61 (RAHYNIVTF; Human papillomavirus 16) [compound 61] ... +
